Biological target: Sodium-dependent dopamine transporter (Rattus norvegicus)
Test: Binding Affinity to cocaine site of Dopamine transporter in caudate nuclei which was homogenized and incubated with [3H]mazindol.
Reported Endpoint: pKi
One number for each entry, as −log10 of the molar value.

>>> df
                                   molecule  measured_value
0  CN1CCC(O)(c2ccccc2)C(C(=O)c2ccccc2)C1 (configuration not stated)            5.35

Now look at this entry.
What does the record list as pKi for Cc1ccc(C(=O)C2CN(C)CCC2(O)c2ccc(C)cc2)cc1 (configuration not stated) ?
6.31

* * *

Answer each item with its documented Ki.
Molecular target: Sodium-dependent dopamine transporter (Rattus norvegicus, UniProt P23977)
Sequence (P23977 whole entry): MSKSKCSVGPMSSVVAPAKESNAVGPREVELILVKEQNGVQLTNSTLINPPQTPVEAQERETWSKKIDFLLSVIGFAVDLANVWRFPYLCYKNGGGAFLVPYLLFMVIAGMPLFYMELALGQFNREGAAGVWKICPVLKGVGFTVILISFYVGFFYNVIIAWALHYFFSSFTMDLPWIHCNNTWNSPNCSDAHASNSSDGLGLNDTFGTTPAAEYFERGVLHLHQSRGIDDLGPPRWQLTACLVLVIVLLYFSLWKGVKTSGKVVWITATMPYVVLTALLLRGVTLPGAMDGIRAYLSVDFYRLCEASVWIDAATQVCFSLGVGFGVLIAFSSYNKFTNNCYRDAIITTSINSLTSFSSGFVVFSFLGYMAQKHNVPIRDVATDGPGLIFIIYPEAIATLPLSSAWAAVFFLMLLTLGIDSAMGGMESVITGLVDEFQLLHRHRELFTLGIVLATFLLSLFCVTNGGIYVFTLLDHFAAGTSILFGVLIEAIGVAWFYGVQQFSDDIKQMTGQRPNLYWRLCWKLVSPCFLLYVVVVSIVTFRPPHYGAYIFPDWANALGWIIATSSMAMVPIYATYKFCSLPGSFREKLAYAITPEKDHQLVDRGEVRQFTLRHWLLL
Test: Inhibition of [3H]DA Uptake at dopamine transporter in rat cortex was measured by liquid scintillation spectrometry
Format: tissue-based
Give bare numbers, in µM.

                                   compound  measured_value
0  CN1CCC(O)(c2ccc(F)cc2)C(C(=O)c2ccc(F)cc2)C1 (configuration not stated)             4.2
1  CN1CCC(O)(c2ccc(Cl)c(Cl)c2)C(C(=O)c2ccc(Cl)c(Cl)c2)C1 (configuration not stated)           0.051

Required: Ki, one value per compound below.
1. CN1CCC(O)(c2ccc(Cl)cc2Cl)C(C(=O)c2ccc(Cl)cc2Cl)C1 (configuration not stated)
2. CN1CCC(O)(c2ccc(Cl)c(Cl)c2)C([C@@H](O)c2ccc(Cl)c(Cl)c2)C1 (some centres not stated)

1. 5.85
2. 4.22

Required: Ki, one value per compound below.
1. Cc1ccc(C2OC(=O)OC3(c4ccc(C)cc4)CCN(C)CC23)cc1 (configuration not stated)
2. CN1CCC(O)(c2ccc(Cl)cc2Cl)C([C@@H](O)c2ccc(Cl)cc2Cl)C1 (some centres not stated)

1: 9.48; 2: 7.52

What does the record list as Ki for Cc1ccc([C@H](O)C2CN(C)CCC2(O)c2ccc(C)cc2)cc1 (some centres not stated) ?
15.8
